Where do these numbers come from? They come from the supplement of paper PMC7877785.

self-splicing fitness (ln) values, listed per item
assay comment: self-splicing fitness, log relative to wild type (ln ratio); higher = more splicing; Tetrahymena group I intron in knt gene, E. coli kanamycin selection, DiMSum; sequences stand for … in CUCUCU…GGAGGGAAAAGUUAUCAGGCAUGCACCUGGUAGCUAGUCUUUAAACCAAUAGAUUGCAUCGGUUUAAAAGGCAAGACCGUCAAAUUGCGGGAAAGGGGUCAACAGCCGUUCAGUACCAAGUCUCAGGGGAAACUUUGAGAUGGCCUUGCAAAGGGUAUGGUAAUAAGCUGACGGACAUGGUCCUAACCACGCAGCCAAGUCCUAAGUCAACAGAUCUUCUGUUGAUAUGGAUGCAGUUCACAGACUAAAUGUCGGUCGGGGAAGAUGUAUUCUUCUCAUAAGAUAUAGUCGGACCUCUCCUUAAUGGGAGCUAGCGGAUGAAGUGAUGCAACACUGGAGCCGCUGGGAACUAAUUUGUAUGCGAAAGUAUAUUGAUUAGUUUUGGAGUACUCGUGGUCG;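 note: selection with 25 µg/mL kanamycin versus none on LB agar overnight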
measurement context: 30 °C
When you answer, write just the number.

In the examples that follow, each entry is paired with its recorded self-splicing fitness (ln).
macromolecule sequence	measure name	assay result
AUUCAGCAAUAUUACGCGGC	self-splicing fitness (ln)	-3.26
CCCCAGCAAUAUUACGUGCG	self-splicing fitness (ln)	-3.1
AAUUAGCAAUAUUACGAAGG	self-splicing fitness (ln)	-2.79
AAUCAGCAAUAUUACGGAAG	self-splicing fitness (ln)	-1.75
ACAAAGCAAUAUUACGAAUU	self-splicing fitness (ln)	-3.38
ACAAAGCAAUAUUACGCUCU	self-splicing fitness (ln)	-1.09
AACAAGCAAUAUUACGGGCC	self-splicing fitness (ln)	-2.99
CAUCAGCAAUAUUACGUGGG	self-splicing fitness (ln)	-1.9
AUAUAGCAAUAUUACGCUUU	self-splicing fitness (ln)	-2.12
CCAUAGCAAUAUUACGUCAA	self-splicing fitness (ln)	-4.82

Input line: Would you mind telling me what self-splicing fitness (ln) value was observed for `UACCAGCAAUAUUACGAGAC` ?
Output line: -2.38

====

assay comment: self-splicing fitness, log relative to wild type (ln ratio); higher = more splicing; Tetrahymena group I intron in knt gene, E. coli kanamycin selection, DiMSum; sequences stand for … in CUCUCU…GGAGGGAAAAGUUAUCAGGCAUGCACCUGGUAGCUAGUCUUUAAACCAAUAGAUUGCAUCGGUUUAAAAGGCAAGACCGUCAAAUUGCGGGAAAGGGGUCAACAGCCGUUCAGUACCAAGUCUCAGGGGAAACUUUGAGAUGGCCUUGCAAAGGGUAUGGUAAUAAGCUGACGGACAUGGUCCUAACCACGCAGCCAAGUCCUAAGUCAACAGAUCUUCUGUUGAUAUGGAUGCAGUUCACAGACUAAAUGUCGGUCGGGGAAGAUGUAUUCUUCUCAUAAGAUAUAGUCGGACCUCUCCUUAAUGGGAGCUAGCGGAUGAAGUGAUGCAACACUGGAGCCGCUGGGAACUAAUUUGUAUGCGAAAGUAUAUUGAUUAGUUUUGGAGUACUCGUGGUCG
measurement context: 37 °C
The class of a record is decided solely by its measured self-splicing fitness (ln); consult zone 1: < -2; zone 2: ≥ -2 and < -0.6; zone 3: ≥ -0.6

macromolecule sequence	group label
UGCAAGCAAUAUUACGUUGC	zone 1

Input line: Input `AAGAAGCAAUAUUACGACAA` ; output its category
Output line: zone 3

Input line: Now the same for `ACUGAGCAAUAUUACGUACA`
Output line: zone 3

Input line: Now consider `UUACAGCAAUAUUACGUACC` .
Output line: zone 2

Input line: Field entry: `CCAGAGCAAUAUUACGUUAA`
Output line: zone 1

Input line: Quick one: `CAAUAGCAAUAUUACGUCGG`
Output line: zone 3

Input line: One more sequence: `UCAAAGCAAUAUUACGUCCG`
Output line: zone 2

Input line: Please give the result for `CAUGAGCAAUAUUACGGGUC` too.
Output line: zone 1

Input line: Further, for `GGCCAGCAAUAUUACGUAGA` ?
Output line: zone 2

Input line: Item: `AGGGAGCAAUAUUACGACUG`
Output line: zone 3

Input line: Thanks! And `UGCCAGCAAUAUUACGCUGA` ?
Output line: zone 1

Input line: Please give the result for `UAUCAGCAAUAUUACGGACG` too.
Output line: zone 3

Input line: Now consider `UAAGAGCAAUAUUACGCACA` .
Output line: zone 2

Input line: Now the same for `CGGCAGCAAUAUUACGUUGC`
Output line: zone 1

====

assay comment: self-splicing fitness, log relative to wild type (ln ratio); higher = more splicing; Tetrahymena group I intron in knt gene, E. coli kanamycin selection, DiMSum; sequences stand for … in CUCUCU…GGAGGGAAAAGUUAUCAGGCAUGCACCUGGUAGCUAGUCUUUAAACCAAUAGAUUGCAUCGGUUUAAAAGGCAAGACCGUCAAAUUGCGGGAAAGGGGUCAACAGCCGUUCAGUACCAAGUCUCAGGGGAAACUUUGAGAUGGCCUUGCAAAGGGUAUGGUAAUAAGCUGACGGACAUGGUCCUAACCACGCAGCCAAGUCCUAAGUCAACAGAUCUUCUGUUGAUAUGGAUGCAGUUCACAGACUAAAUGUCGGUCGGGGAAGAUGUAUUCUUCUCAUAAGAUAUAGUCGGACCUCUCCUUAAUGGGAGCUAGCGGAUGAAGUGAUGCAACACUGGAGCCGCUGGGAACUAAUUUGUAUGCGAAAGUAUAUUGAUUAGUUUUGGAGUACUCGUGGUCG
measurement context: 37 °C
So basically, the class depends on measured self-splicing fitness (ln), and the ranges are LOW (below -2), MEDIUM (-2 to below -1), HIGH (-1 or more)

Before answering, review these 5 worked examples.
macromolecule sequence	group label
GACUAGCAAUAUUACGCCGC	MEDIUM
UAGGAGCAAUAUUACGGUUG	LOW
UUUCAGCAAUAUUACGAGCA	HIGH
UGCAAGCAAUAUUACGCGCA	MEDIUM
ACGUAGCAAUAUUACGUUGG	LOW

Input line: Input `UAUUAGCAAUAUUACGCCCG` ; output its category
Output line: HIGH

Input line: Now the same for `UGCCAGCAAUAUUACGGACC`
Output line: HIGH

Input line: What would you report for `GUCAAGCAAUAUUACGUACC` ?
Output line: MEDIUM

Input line: Please give the result for `GGUCAGCAAUAUUACGGGAA` too.
Output line: HIGH

Input line: And for `ACAGAGCAAUAUUACGGAGU` ?
Output line: LOW

====

# reported self-splicing fitness (ln); entries follow
assay comment: self-splicing fitness, log relative to wild type (ln ratio); higher = more splicing; Tetrahymena group I intron in knt gene, E. coli kanamycin selection, DiMSum; sequences stand for … in CUCUCU…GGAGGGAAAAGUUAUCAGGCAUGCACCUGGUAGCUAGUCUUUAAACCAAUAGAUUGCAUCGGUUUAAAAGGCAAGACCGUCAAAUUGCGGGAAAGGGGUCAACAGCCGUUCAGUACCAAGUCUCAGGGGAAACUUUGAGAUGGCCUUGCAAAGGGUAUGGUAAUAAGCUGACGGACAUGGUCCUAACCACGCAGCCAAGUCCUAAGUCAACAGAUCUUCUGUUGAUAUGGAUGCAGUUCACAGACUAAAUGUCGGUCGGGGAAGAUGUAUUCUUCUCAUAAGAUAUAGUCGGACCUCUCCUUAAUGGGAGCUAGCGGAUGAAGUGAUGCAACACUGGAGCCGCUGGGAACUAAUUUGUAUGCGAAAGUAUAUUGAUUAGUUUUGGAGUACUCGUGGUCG
measurement context: 30 °C
Lab note: jot down the number only; don't add units.

Some entries whose results are on file:
macromolecule sequence	self-splicing fitness (ln)
CCACAGCAAUAUUACGAGAU	-3.37
UGGAAGCAAUAUUACGGGUA	-1.67
UGCAAGCAAUAUUACGCGAU	-3.34
GAUCAGCAAUAUUACGGUUU	-0.544
CCAGAGCAAUAUUACGUCGU	-3.93
CGACAGCAAUAUUACGGCCC	-0.607

The record that follows has no self-splicing fitness (ln) shown yet.
Input line: // query self-splicing fitness (ln) value for entry `CAUGAGCAAUAUUACGUAUG`
Output line: -2.65

====

assay comment: self-splicing fitness, log relative to wild type (ln ratio); higher = more splicing; Tetrahymena group I intron in knt gene, E. coli kanamycin selection, DiMSum; sequences stand for … in CUCUCU…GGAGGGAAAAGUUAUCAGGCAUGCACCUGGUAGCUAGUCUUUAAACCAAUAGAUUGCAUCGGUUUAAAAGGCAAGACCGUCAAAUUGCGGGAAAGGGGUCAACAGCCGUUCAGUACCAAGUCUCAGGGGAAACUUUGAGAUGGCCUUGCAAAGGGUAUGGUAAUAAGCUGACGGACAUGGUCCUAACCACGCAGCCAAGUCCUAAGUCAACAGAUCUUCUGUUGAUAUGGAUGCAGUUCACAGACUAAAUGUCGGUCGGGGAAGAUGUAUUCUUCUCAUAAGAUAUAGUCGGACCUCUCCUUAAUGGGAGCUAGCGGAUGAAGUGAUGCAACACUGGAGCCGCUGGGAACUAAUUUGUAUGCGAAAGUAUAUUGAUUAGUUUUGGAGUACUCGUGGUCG
measurement context: 37 °C
measure name: self-splicing fitness (ln)
The response must contain the number and no unit.

Solved entries:
macromolecule sequence	assay result
UAACAGCAAUAUUACGUACA	-0.319
CAGGAGCAAUAUUACGUCAU	-1.89
GCGGAGCAAUAUUACGGGUU	-1.49

Input line: Tell me the measured self-splicing fitness (ln) of `AUAAAGCAAUAUUACGCAAU` , please.
Output line: -0.703
